Sourced from paper PMC12881681

testedOn: human liver cytosolic AOX1 (Homo sapiens, UniProt Q06278)
Sequence (Q06278 1-1338): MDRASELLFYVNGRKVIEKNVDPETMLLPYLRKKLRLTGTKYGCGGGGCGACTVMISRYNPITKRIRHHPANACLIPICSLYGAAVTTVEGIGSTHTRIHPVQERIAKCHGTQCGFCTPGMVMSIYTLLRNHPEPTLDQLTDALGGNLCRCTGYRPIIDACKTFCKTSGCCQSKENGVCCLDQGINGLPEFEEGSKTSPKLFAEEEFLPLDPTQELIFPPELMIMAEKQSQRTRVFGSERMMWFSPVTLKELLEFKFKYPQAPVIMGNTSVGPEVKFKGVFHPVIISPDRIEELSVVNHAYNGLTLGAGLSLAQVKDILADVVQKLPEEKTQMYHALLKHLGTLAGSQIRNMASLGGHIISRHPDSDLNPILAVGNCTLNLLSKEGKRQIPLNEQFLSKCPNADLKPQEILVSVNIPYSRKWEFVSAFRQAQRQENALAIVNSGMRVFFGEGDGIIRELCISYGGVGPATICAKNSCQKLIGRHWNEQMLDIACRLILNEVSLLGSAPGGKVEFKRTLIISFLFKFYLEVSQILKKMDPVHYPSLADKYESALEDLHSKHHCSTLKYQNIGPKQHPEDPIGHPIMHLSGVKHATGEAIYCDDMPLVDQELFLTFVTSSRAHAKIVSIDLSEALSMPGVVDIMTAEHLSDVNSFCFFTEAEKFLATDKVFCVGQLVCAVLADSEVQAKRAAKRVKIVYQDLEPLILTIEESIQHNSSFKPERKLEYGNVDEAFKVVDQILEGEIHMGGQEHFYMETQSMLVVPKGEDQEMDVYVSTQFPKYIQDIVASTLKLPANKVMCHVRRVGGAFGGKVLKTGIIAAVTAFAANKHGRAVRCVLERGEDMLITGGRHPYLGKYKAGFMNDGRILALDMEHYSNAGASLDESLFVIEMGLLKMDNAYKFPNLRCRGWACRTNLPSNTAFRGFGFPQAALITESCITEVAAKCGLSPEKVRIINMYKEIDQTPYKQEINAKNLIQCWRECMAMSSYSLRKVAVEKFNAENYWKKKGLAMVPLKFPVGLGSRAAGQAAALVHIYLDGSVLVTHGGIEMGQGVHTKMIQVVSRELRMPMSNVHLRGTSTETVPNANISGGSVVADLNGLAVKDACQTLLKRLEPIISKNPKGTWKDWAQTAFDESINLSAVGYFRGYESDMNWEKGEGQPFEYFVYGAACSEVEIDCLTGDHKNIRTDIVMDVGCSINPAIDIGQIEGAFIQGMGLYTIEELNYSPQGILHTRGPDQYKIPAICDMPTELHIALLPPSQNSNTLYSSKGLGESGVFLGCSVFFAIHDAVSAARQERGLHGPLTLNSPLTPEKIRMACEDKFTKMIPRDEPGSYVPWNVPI
assayNotes: Enzyme inactivation of human liver cytosolic AOX1-mediated carbazeran 4-oxidation
conditionLabel: read-out: KI,u; unbound; KI,u = fu × KI, fu at 10 μM in human liver cytosol
Ki vs 2 µM: less than gives Condition met; not less than gives Condition not met.

The following compounds have reported results that may help.
C#Cc1cccc(Nc2nc(=O)[nH]c3cc(OCCOC)c(OCCOC)cc23)c1 [2-Hydroxyerlotinib, 2-hydroxyerlotinib] : Condition not met
C#Cc1cccc(Nc2ncnc3cc(OCCO)c(OCCO)cc23)c1 [O-Didesmethylerlotinib, O-didesmethylerlotinib] : Condition met
C=Cc1cccc(Nc2ncnc3cc(OCCOC)c(OCCOC)cc23)c1 [3-Vinylerlotinib, 3-vinylerlotinib] : Condition not met
C#Cc1cc(Nc2ncnc3cc(OCCOC)c(OCCOC)cc23)ccc1C [4′-Methylerlotinib, 4′-methylerlotinib] : Condition met

[ask] Field: below-cutoff. Rule: recorded Ki strictly less than 2 µM. Subject: C#Cc1cccc(Nc2ncnc3cc(OCCOC)c(OCCO)cc23)c1 [O-Desmethylerlotinib, O-desmethylerlotinib]
[reply] Condition not met

---

assayNotes: Rapid equilibrium dialysis, nonspecific binding to human liver cytosol
conditionLabel: human, cytosol
Items are presented alongside their recorded Fraction Unbound (fu).
Answer using only a numeral; do not append any unit.

// worked examples, Fraction Unbound (fu) included
C#Cc1cccc(Nc2nc(C)nc3cc(OCCOC)c(OCCOC)cc23)c1 [2-Methylerlotinib, 2-methylerlotinib] : 0.51
C#Cc1cc(Nc2ncnc3cc(OCCOC)c(OCCOC)cc23)ccc1C [4′-Methylerlotinib, 4′-methylerlotinib] : 0.73
C#Cc1cccc(Nc2nc(=O)[nH]c3cc(OCCOC)c(OCCOC)cc23)c1 [2-Hydroxyerlotinib, 2-hydroxyerlotinib] : 0.78

Shifting focus to the molecule that follows.
# Fraction Unbound (fu) (molecule: C=Cc1cccc(Nc2ncnc3cc(OCCOC)c(OCCOC)cc23)c1 [3-Vinylerlotinib, 3-vinylerlotinib] ) is 0.78

---

assayNotes: Pharmacokinetics study in mice: erlotinib pretreatment, carbazeran and 4-oxo-carbazeran
Assay type: in vivo, BALB/c mice
conditionLabel: male, BALB/c, mouse, whole blood, po, 10 mg/kg, carbazeran 10 mg/kg p.o., erlotinib 100 mg/kg p.o. 2 h before; read-out: Apparent oral clearance (CL/F) (converted)
measurementLabel: CL/F (mL/min/kg)
Give just the numeric value; mL/min/kg need not be written.

Just so you know, measured CL/F for CCNC(=O)OC1CCN(c2nncc3cc(OC)c(OC)cc23)CC1 [Carbazeran, carbazeran] came out at 114

---

testedOn: human liver cytosolic AOX1 (Homo sapiens, UniProt Q06278)
assayNotes: Partition ratio determination (titration, human liver cytosol)
Format: biochemical
Design: Enzymatic reaction was initiated by adding human liver cytosol (100 μg); tissue Corning, Inc. (Gentest brand) 452115; host or cells: human liver cytosol, pool of 150 donors
conditionLabel: turnover number minus 1
measurementLabel: Partition Ratio
Answer as a number with no unit attached.

C#Cc1cccc(Nc2nc(C)nc3cc(OCCOC)c(OCCOC)cc23)c1 [2-Methylerlotinib, 2-methylerlotinib] : 48.9

// Partition Ratio (human liver cytosolic AOX1 (Homo sapiens, UniProt Q06278)) for C#Cc1cccc(Nc2ncnc3cc(OCCOC)c(OCCO)cc23)c1 [O-Desmethylerlotinib, O-desmethylerlotinib] = 34.2

---

testedOn: human liver cytosolic AOX1 (Homo sapiens, UniProt Q06278)
assayNotes: Enzyme inactivation of human liver cytosolic AOX1-mediated carbazeran 4-oxidation
conditionLabel: human liver cytosol, 10 μM (raloxifene 0.02 μM), 30-minute preincubation
Each entry below carries its recorded decrease in carbazeran 4-oxidation.
Number in %, nothing else.

Here is how some compounds turned out for decrease in carbazeran 4-oxidation.
C=Cc1cccc(Nc2ncnc3cc(OCCOC)c(OCCOC)cc23)c1 : 84
C#Cc1cccc(Nc2ncnc3cc(OCCO)c(OCCO)cc23)c1 : 99

Now consider a different compound.
Summary for this compound, `C#Cc1cccc(Nc2ncnc3cc(OCCOC)c(OCCO)cc23)c1` : decrease in carbazeran 4-oxidation is 99

---

assayNotes: Pharmacokinetics study in mice: erlotinib pretreatment, carbazeran and 4-oxo-carbazeran
Type: in vivo, BALB/c mice
conditionLabel: male, BALB/c, mouse, whole blood, po, 10 mg/kg, carbazeran 10 mg/kg p.o., Control (vehicle pretreatment); read-out: MRT0-∞
measurementLabel: MRT inf (h)
Quick note: give the figure in h, leave out the unit.

Note to self: MRT inf recorded for `CCNC(=O)OC1CCN(c2nncc3cc(OC)c(OC)cc23)CC1` was 1.32

---

assayNotes: Pharmacokinetics study in mice: erlotinib pretreatment, carbazeran and 4-oxo-carbazeran
Format: in vivo, BALB/c mice
conditionLabel: male, BALB/c, mouse, whole blood, po, 10 mg/kg, blood, carbazeran 10 mg/kg p.o., Control (vehicle pretreatment)
measurementLabel: Cmax (µM)
Kindly provide the numeric value in µM only, without the unit symbol.

Per the records, this molecule ( `CCNC(=O)OC1CCN(c2nncc3cc(OC)c(OC)cc23)CC1` ) has Cmax equal to 3.47

---

assayNotes: Pharmacokinetics study in mice: erlotinib pretreatment, carbazeran and 4-oxo-carbazeran
Format: in vivo, BALB/c mice
conditionLabel: male, BALB/c, mouse, whole blood, po, 10 mg/kg, blood, carbazeran 10 mg/kg p.o., erlotinib 100 mg/kg p.o. 2 h before
measurementLabel: AUC(0-inf) (µM·h)
Write the value in µM·h as a bare number.

get_value(item= `CCNC(=O)OC1CCN(c2nncc3cc(OC)c(OC)cc23)CC1` , readout=AUC(0-inf)) returns 4.6

---

assayNotes: Rapid equilibrium dialysis, nonspecific binding to human liver cytosol
conditionLabel: human, human liver cytosol
measurementLabel: fraction unbound at 4 h, 10 μM
// response body must contain only the number

Just so you know, measured fraction unbound at 4 h, 10 μM for `C#Cc1cccc(Nc2ncnc3cc(OCCOC)c(OCCOC)cc23)c1` came out at 0.56

---

Form field: t1/2, fold longer compared with erlotinib (one value per entry).
testedOn: human liver cytosolic AOX1 (Homo sapiens)
Sequence (Q06278 1-1338): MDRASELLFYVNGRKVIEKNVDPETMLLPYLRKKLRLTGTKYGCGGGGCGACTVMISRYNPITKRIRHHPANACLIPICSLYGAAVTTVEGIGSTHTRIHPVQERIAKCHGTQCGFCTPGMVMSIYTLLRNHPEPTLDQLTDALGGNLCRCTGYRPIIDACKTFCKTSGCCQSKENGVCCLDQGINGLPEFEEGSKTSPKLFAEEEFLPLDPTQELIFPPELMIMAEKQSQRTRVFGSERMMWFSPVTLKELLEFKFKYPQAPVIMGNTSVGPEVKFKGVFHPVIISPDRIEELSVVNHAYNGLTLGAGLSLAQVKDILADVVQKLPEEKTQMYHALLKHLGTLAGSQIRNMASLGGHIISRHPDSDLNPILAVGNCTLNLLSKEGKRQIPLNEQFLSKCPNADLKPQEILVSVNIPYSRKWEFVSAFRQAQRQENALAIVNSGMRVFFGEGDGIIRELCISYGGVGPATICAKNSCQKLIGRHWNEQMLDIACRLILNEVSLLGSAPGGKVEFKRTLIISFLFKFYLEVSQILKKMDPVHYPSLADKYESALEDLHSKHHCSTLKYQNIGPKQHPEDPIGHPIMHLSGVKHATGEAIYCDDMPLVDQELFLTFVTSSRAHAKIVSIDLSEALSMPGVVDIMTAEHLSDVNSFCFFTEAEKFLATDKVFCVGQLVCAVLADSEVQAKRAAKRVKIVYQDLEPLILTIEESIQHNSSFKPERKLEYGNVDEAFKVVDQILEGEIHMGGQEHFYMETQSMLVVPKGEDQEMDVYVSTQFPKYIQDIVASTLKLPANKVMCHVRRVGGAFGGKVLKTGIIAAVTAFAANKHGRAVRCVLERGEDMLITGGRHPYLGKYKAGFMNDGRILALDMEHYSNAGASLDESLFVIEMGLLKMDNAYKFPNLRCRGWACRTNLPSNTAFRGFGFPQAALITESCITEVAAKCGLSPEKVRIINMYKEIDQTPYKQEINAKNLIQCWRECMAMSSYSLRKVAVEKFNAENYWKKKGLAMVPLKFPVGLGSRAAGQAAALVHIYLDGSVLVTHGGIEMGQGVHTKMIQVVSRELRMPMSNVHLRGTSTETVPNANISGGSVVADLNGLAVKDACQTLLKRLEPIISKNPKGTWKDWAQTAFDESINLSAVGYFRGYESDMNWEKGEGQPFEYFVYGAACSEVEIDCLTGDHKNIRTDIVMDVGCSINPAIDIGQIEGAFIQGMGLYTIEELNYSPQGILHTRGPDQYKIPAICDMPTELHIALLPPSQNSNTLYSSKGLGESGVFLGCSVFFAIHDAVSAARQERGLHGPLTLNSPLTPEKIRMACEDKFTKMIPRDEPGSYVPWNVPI
assayNotes: Enzyme inactivation of human liver cytosolic AOX1-mediated carbazeran 4-oxidation
conditionLabel: Table 1 values
Answer with a number only, understood to be in fold.

C#Cc1cccc(Nc2nc(C)nc3cc(OCCOC)c(OCCOC)cc23)c1 : 1.3

t1/2, fold longer compared with erlotinib in this record for C#Cc1cccc(Nc2nc(=O)[nH]c3cc(OCCOC)c(OCCOC)cc23)c1 [2-Hydroxyerlotinib, 2-hydroxyerlotinib] : 4.6

t1/2, fold longer compared with erlotinib reported for this compound `C#Cc1cc(Nc2ncnc3cc(OCCOC)c(OCCOC)cc23)ccc1C` : 8.5
